Below: a set of entries, each annotated with reported IC50.
# MEASURED_TARGET: BRD4 protein (Homo sapiens)
# PROTOCOL: FRET assay, half maximal inhibitory concentration (IC50)
# Format: binding
# MEASUREMENT_CONTEXT: BRD4 protein 50 nM, Biotin-H4KAc4 peptide 12.5 nM; List of Classification
# Experimental: The compounds were biologically evaluated by determining the half maximal inhibitory concentration (IC50) by FRET assay. The IC50 is a measure of the effectiveness of a substance in inhibiting a specific biological or biochemical function. […] The reaction was run in a final volume of 25 μl. […] The plates were incubated for one hour prior to reading on an Envision reader (Perkin Elmer) […]

Incoming: Consider the molecule shown here: Cc1cc(O)nc2ccc(NC(=O)c3cc(N)ccc3N3CCOCC3)cc12 What is its recorded IC50?
Outgoing: 500 to 1000 nM

Incoming: Consider next the molecule Cc1cc(O)nc2ccc(NC(=O)c3cc(S(=O)(=O)N(C)C)ccc3N3CCC(N(C)C)C3)cc12 (centres unmarked) in the same way.
Outgoing: 200 to 500 nM

Incoming: Consider next the molecule Cc1cc(O)nc2ccc(NC(=O)c3cc(S(=O)(=O)N(C)C)ccc3N3CCN(C)CC3)cc12 in the same way.
Outgoing: < 200 nM

Incoming: Consider next the molecule COc1cc(O)nc2ccc(NC(=O)c3cc(CN4CCN(C)CC4)ccc3N3CCCC3)cc12 in the same way.
Outgoing: < 200 nM

Incoming: Consider next the molecule Cc1cc(O)nc2ccc(NC(=O)c3cc(S(N)(=O)=O)ccc3N3CCOCC3)cc12 in the same way.
Outgoing: < 200 nM

Continuing:
Incoming: Consider the molecule shown here: Cc1cc(O)nc2ccc(NC(=O)c3cc(N)cnc3N3CCCC3)cc12 What is its recorded IC50?
Outgoing: < 200 nM

Incoming: Consider next the molecule Cc1cc(-c2cnc(N3CCOCC3)c(C(=O)Nc3cc4c(C)cc(O)nc4cc3C)c2)on1 in the same way.
Outgoing: 200 to 500 nM

Incoming: Consider next the molecule Cc1cc(O)nc2ccc(NC(=O)c3cc(S(=O)(=O)N(C)C)ccc3N3CCCC3)cc12 in the same way.
Outgoing: < 200 nM

###

# MEASURED_TARGET: BRD4 protein (Homo sapiens)
# PROTOCOL: FRET assay, half maximal inhibitory concentration (IC50)
# Format: binding
# MEASUREMENT_CONTEXT: BRD4 protein 50 nM, Biotin-H4KAc4 peptide 12.5 nM; A Further List of Classification
Below: a set of entries, each annotated with reported IC50.

Here is how some molecules turned out for IC50.
Incoming: Consider the molecule shown here: Cc1cc(O)nc2ccc(NC(=O)c3cc(CN4CCN(CCO)CC4)ccc3N3CCCC3)cc12 What is its recorded IC50?
Outgoing: < 0.2 µM

Incoming: Consider next the molecule Cc1cc(O)nc2ccc(NC(=O)c3cc(CN4CCOCC4)cnc3N3CCC(N4CCCC4)C3)cc12 (centres unmarked) in the same way.
Outgoing: 1 to 10 µM

Attention now turns to another entry.
Incoming: Consider the molecule shown here: Cc1cc(O)nc2ccc(NC(=O)c3cc(CN4CCOCC4)cnc3N3CCCC3C)cc12 (centres unmarked) What is its recorded IC50?
Outgoing: 0.2 to 0.5 µM

###

Below: a set of entries, each annotated with reported IC50.
# MEASURED_TARGET: UniProtKB O60885
# PROTOCOL: FRET assay, half maximal inhibitory concentration (IC50)
# Type: binding
# MEASUREMENT_CONTEXT: BRD4 protein 50 nM, Biotin-H4KAc4 peptide 12.5 nM; A Further List of Classification

Here is how some molecules turned out for IC50.
Incoming: Consider the molecule shown here: Cc1cc(O)nc2ccc(NC(=O)c3cc(S(=O)(=O)N(C)C)ccc3N3CCC4CN(C)CC43)cc12 (stereo not drawn) [S54] What is its recorded IC50?
Outgoing: 1000 to 10000 nM

Incoming: Consider next the molecule Cc1cc(O)nc2ccc(NC(=O)c3cc(S(=O)(=O)N(C)C)ccc3N3C4CCC3CC(C)(O)C4)cc12 (stereo not drawn) [S65] in the same way.
Outgoing: 500 to 1000 nM

Incoming: Consider next the molecule Cc1cc(O)nc2ccc(NC(=O)c3cc(S(=O)(=O)N4CCOCC4)ccc3N3CCOCC3)cc12 [S20] in the same way.
Outgoing: < 200 nM

Incoming: Consider next the molecule Cc1cc(O)nc2ccc(NC(=O)c3cc([N+](=O)[O-])ccc3N(C)C)cc12 [S22] in the same way.
Outgoing: 200 to 500 nM

Incoming: Consider next the molecule CN1CCN(c2ccccc2C(=O)Nc2ccc3c(c2)OCC(=O)N3)CC1 [S5] in the same way.
Outgoing: > 10000 nM

Incoming: Consider next the molecule Cc1cc(O)nc2ccc(NC(=O)c3cccc(S(=O)(=O)N4CCN(C)CC4)c3)cc12 [S36] in the same way.
Outgoing: > 10000 nM

Incoming: Consider next the molecule Cc1cc(O)nc2ccc(NC(=O)c3cc(N4C(=O)CCC4=O)ccc3N3CCOCC3)cc12 [S14] in the same way.
Outgoing: 200 to 500 nM

Incoming: Consider next the molecule CNS(=O)(=O)c1cccc(C(=O)Nc2ccc3nc(O)cc(C)c3c2)c1 [S23] in the same way.
Outgoing: > 10000 nM

Attention now turns to another entry.
Incoming: Consider the molecule shown here: Cc1cc(O)nc2ccc(NC(=O)c3ccccc3N3CCN(C)CC3)cc12 [S10] What is its recorded IC50?
Outgoing: 1000 to 10000 nM

###

# MEASURED_TARGET: BRD4 protein (Homo sapiens)
# PROTOCOL: FRET assay, half maximal inhibitory concentration (IC50)
# Assay type: binding
# MEASUREMENT_CONTEXT: BRD4 protein 50 nM, Biotin-H4KAc4 peptide 12.5 nM; List of Classification
Below: a set of entries, each annotated with reported IC50.

Here is how some compounds turned out for IC50.
Incoming: Any idea what IC50 came out for COc1cc(NC(=O)c2cc(-c3cnn(C)c3)cnc2N2CCOCC2)cc2c(C)cc(O)nc12 on BRD4 protein (Homo sapiens)?
Outgoing: < 200 nM

Incoming: Consider next the compound COC1CCN(c2ccc(S(=O)(=O)N3CCOCC3)cc2C(=O)Nc2ccc3nc(O)cc(C)c3c2)C1 (centres unmarked) in the same way.
Outgoing: < 200 nM

Incoming: Consider next the compound CN(C)S(=O)(=O)c1ccc(N2CCOCC2)c(C(=O)Nc2ccc3[nH]c(=O)cc(C(F)(F)F)c3c2)c1 in the same way.
Outgoing: 1000 to 10000 nM

Continuing:
Incoming: Any idea what IC50 came out for Cc1cc(O)nc2ccc(NC(=O)c3cc(CN4CCOCC4)cnc3N3CCCC3)nc12 on BRD4 protein (Homo sapiens)?
Outgoing: 1000 to 10000 nM

Incoming: Consider next the compound Cc1cc(O)nc2ccc(NC(=O)c3cc(-c4nnn[nH]4)ncc3N3CCCC3)cc12 in the same way.
Outgoing: < 200 nM

Incoming: Consider next the compound Cc1cc(O)nc2ccc(NC(=O)c3cc(S(=O)(=O)N(C)C)ccc3NCCN(C)C)cc12 in the same way.
Outgoing: > 10000 nM

Incoming: Consider next the compound CC(=O)c1ccc(N2CCCC2)c(C(=O)Nc2ccc3nc(O)cc(C)c3c2)n1 in the same way.
Outgoing: < 200 nM

Incoming: Consider next the compound Cc1cc(O)nc2ccc(N(C)C(=O)c3cc(S(=O)(=O)N4CCOCC4)ccc3N3CCCC3)cc12 in the same way.
Outgoing: > 10000 nM

Incoming: Consider next the compound Cc1cc(O)nc2ccc(NC(=O)c3cc(C(C)O)ccc3N3CCCC3c3ccccn3)cc12 (centres unmarked) in the same way.
Outgoing: < 200 nM

Incoming: Consider next the compound Cc1nnc(-c2ccc(N3CCOCC3)c(C(=O)Nc3ccc4nc(O)cc(C)c4c3)c2)o1 in the same way.
Outgoing: < 200 nM

Incoming: Consider next the compound Cc1cc(O)nc2ccc(NC(=O)c3cc(S(=O)(=O)N4CCOCC4)ccc3N3CCCC3)cc12 in the same way.
Outgoing: < 200 nM

Incoming: Consider next the compound Cc1cc(O)nc2ccc(NC(=O)c3cc(Br)cnc3N3CCC(F)C3)cc12 (centres unmarked) in the same way.
Outgoing: 500 to 1000 nM

Incoming: Consider next the compound Cc1cc(O)nc2ccc(NC(=O)c3cccnc3N3CCC(F)C3)cc12 (centres unmarked) in the same way.
Outgoing: < 200 nM

Incoming: Consider next the compound Cc1cc2nc(O)cc(C)c2cc1NC(=O)c1cccnc1N1CCC(F)(F)C1 in the same way.
Outgoing: 200 to 500 nM

Incoming: Consider next the compound Cc1cc(O)nc2ccc(NC(=O)c3cccnc3N3CCOC4CNCC43)cc12 (centres unmarked) in the same way.
Outgoing: < 200 nM

Incoming: Consider next the compound CC(C)c1cc(O)nc2ccc(NC(=O)c3cccnc3N3CCOCC3)cc12 in the same way.
Outgoing: 1000 to 10000 nM

Incoming: Consider next the compound Cc1cc2nc(O)cc(C)c2cc1NC(=O)c1cc(-c2cnn(C)c2)cnc1N1CCOCC1 in the same way.
Outgoing: < 200 nM

Incoming: Consider next the compound Cc1cc(O)nc2ccc(NC(=O)c3nc(C(N)=O)ccc3N3CCCC3)cc12 in the same way.
Outgoing: 200 to 500 nM

Incoming: Consider next the compound CN1C(=O)CCc2cc(NC(=O)c3cccnc3N3CCOCC3)ccc21 in the same way.
Outgoing: 1000 to 10000 nM

Incoming: Consider next the compound Cc1cc(O)nc2ccc(NC(=O)c3cc(C(=O)N4CCN(C)CC4)ccc3N3CCOCC3)cc12 in the same way.
Outgoing: < 200 nM

Incoming: Consider next the compound Cc1cc(O)nc2ccc(NC(=O)c3cc(CN4CCOCC4)cnc3N3CCCC3)cc12 in the same way.
Outgoing: < 200 nM

Incoming: Consider next the compound Cc1cc(O)nc2ccc(NC(=O)c3cc(-c4ccoc4)cnc3N3CCOCC3)cc12 in the same way.
Outgoing: 500 to 1000 nM
